- Read-out: Low-density lipoprotein receptor (LDLR), LDLR (gene 3949)
- TEST_DETAILS: BSK_CASM3C_LDLR: BioMAP Diversity Plus: CASM3C Assay for Low-density lipoprotein receptor (LDLR) Biomarker Activity (AID 2283045);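 also: LDLR protein level on the cell surface quantified by ELISA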
- CONDITIONS_USED: primary human coronary artery smooth muscle cells; actives raise or lower the signal
Calls of active or inactive are those of the source. The calls were made as follows: active = hit-call score of the fitted dose curve at least 0.9, where 1 is the maximum; inactive = score below 0.9.
Can you answer with just one of these options? active, inactive

Ask | Assay outcome for c1ccc(-c2ccccn2)nc1 : what was it?
Reply | inactive

Ask | Check C=CC=CC=CCCCCC too.
Reply | inactive

Ask | Now the same for COc1ccc2nc(N)sc2c1
Reply | inactive

Ask | Next compound up: O=C(Nc1ccccc1SSc1ccccc1NC(=O)c1ccccc1)c1ccccc1
Reply | inactive

Ask | Now the same for CCCCC(CC)COC(=O)c1ccccc1O (configuration not stated)
Reply | inactive
